molecular target: Tyrosine-protein kinase JAK2 (Homo sapiens)
Sequence (O60674 whole entry): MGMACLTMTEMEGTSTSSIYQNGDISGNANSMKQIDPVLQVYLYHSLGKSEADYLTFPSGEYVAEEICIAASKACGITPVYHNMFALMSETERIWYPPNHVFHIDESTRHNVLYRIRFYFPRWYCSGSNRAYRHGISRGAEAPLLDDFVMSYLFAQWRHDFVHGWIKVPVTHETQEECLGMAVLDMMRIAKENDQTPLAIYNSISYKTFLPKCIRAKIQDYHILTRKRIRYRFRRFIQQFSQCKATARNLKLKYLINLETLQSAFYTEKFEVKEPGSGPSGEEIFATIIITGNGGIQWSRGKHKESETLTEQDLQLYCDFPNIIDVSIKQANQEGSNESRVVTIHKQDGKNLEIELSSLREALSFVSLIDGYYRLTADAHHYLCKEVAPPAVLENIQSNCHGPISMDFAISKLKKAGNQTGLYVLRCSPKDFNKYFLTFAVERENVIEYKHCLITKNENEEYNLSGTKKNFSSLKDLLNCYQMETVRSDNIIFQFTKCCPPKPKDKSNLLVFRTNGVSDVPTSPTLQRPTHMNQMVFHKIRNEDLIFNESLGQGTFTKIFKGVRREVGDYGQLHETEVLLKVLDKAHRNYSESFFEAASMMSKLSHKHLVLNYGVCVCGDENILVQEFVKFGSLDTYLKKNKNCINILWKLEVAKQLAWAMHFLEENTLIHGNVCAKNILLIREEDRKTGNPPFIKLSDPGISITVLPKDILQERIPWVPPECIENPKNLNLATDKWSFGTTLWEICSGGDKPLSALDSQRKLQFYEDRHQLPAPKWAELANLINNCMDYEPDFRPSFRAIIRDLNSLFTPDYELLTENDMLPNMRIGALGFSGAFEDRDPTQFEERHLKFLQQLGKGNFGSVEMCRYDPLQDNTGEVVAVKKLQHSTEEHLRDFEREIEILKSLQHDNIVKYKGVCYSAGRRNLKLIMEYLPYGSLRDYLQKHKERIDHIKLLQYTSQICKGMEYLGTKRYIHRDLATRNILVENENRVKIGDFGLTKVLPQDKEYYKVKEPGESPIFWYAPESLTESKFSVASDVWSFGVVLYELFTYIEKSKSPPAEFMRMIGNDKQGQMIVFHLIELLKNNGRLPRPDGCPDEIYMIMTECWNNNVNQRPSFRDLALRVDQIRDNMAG
MEASURED_QUANTITY: IC50

Ask: Look up and state reported IC50 for N#CCC(C1CCCC1)n1cc(-c2nc(Nc3ccc(C4CCNCC4)cc3)nc3[nH]ccc23)cn1 (racemic)
Result: < 0.05 nM
